Where do the numbers come from? From patent US20190117667A1.

System: human ovarian carcinoma A2780 cells
assay-comment: MTT in vitro cytotoxicity assay, A2780
Type: cell-based
measurement-conditions: triplicate, tested up to 50 μM, listed as 5, read-out: In vitro cytotoxicity IC50 ± S.D., A2780
parameter-measured: pIC50
Note on pIC50: it is the negative log10 of concentration, concentration in mol/L.

Task item: Find the recorded pIC50 belonging to CC(C)N1CCNC1=[Se].CC(C)N1CCNC1=[Se].CC(C)N1CCNC1=[Se].CC(C)N1CCNC1=[Se].[Cl-].[Cl-].[Pt+2] [Complex 5] and report it.
Reply: 4.51

----------
System: prostate carcinoma (22Rv1) cells
assay-comment: MTT in vitro cytotoxicity assay, 22Rv1
Format: cell-based, human
measurement-conditions: triplicate, tested up to 50 μM, read-out: In vitro cytotoxicity IC50 ± S.D., 22RvI
In this section, each of the compounds is paired with its reported IC50.

Example compounds with recorded IC50:
compound="CC(C)N1CCNC1=[Se].CC(C)N1CCNC1=[Se].CC(C)N1CCNC1=[Se].CC(C)N1CCNC1=[Se].[Cl-].[Cl-].[Pt+2] [Complex 5]" assayed_target="prostate carcinoma (22Rv1) cells" measured_result="> 50 µM"
compound="[Cl-].[Cl-].[Pt+2].[Se]=C1NCCCN1.[Se]=C1NCCCN1.[Se]=C1NCCCN1.[Se]=C1NCCCN1 [Complex 6]" assayed_target="prostate carcinoma (22Rv1) cells" measured_result="> 50 µM"
compound="CCCN1CCNC1=[Se].CCCN1CCNC1=[Se].CCCN1CCNC1=[Se].CCCN1CCNC1=[Se].[Cl-].[Cl-].[Pt+2] [Complex 4]" assayed_target="prostate carcinoma (22Rv1) cells" measured_result="46.2 µM"

Task item: Find the recorded IC50 belonging to [Cl-].[Cl-].[Pt+2].[Se]=C1NCCN1.[Se]=C1NCCN1.[Se]=C1NCCN1.[Se]=C1NCCN1 [Complex 2] and report it.
Reply: > 50 µM

Task item: Can you check CCN1CCNC1=[Se].CCN1CCNC1=[Se].CCN1CCNC1=[Se].CCN1CCNC1=[Se].[Cl-].[Cl-].[Pt+2] [Complex 3] next?
Reply: > 50 µM

Task item: Can you check [Cl-].[Cl-].[Pt+2].[Se]=C1NCCCCN1.[Se]=C1NCCCCN1.[Se]=C1NCCCCN1.[Se]=C1NCCCCN1 [Complex 7] next?
Reply: > 50 µM
